experimental_protocol: in vitro
details: plasma
value_type: fraction unbound
One number for each entry.

For reference, reported fraction unbound for COc1ccc2ncc(F)c(C[C@H](O)[C@H]3OC[C@H](NCc4cnc5c(n4)NC(=O)CO5)CO3)c2n1 stands at 0.31

---

experimental_protocol: in vivo
details: female, BALB/c, mouse
value_type: half-life (h)
Answers are plain numbers, in h.

Entry COc1ccc2ncc(F)c(C[C@H](O)[C@H]3OC[C@H](NCc4cnc5c(n4)NC(=O)CO5)CO3)c2n1 — recorded half-life = 2.6

---

experimental_protocol: in vivo
details: female, BALB/c, mouse, po, 50 mg/kg
value_type: AUC(0-t) (ng·h/mL)
One number for each entry, in ng·h/mL.

The recorded AUC(0-t) for COc1ccc2ncc(F)c(C[C@H](O)[C@H]3OC[C@H](NCc4cnc5c(n4)NC(=O)CO5)CO3)c2n1 is 63000

---

experimental_protocol: in vivo
details: female, BALB/c, mouse, iv, 10 mg/kg
value_type: AUC(0-t) (µg·h/mL)
Numbers only, in µg·h/mL.

// field: AUC(0-t); key: COc1ccc2ncc(F)c(C[C@H](O)[C@H]3OC[C@H](NCc4cnc5c(n4)NC(=O)CO5)CO3)c2n1 ; value = 10.8

---

experimental_protocol: in vivo
details: female, BALB/c, mouse, iv, 10 mg/kg
value_type: half-life (h)
Give bare numbers, in h.

COc1ccc2ncc(F)c(C[C@H](O)[C@H]3OC[C@H](NCc4cnc5c(n4)NC(=O)CO5)CO3)c2n1 [OSUAB-0284] has a reported half-life of 2.6

---

experimental_protocol: in vivo
details: female, BALB/c, mouse, po, 10 mg/kg
value_type: AUC(0-inf) (ng·h/mL)
Give bare numbers, in ng·h/mL.

// field: AUC(0-inf); key: COc1ccc2ncc(F)c(C[C@H](O)[C@H]3OC[C@H](NCc4cnc5c(n4)NC(=O)CO5)CO3)c2n1 ; value = 9160

---

experimental_protocol: in vivo
details: female, BALB/c, mouse, 10 mg/kg
value_type: bioavailability (%)
Answers are plain numbers, in %.

The molecule identified as COc1ccc2ncc(F)c(C[C@H](O)[C@H]3OC[C@H](NCc4cnc5c(n4)NC(=O)CO5)CO3)c2n1 registered its bioavailability at 80.6

---

experimental_protocol: in vivo
details: female, BALB/c, mouse, iv, 10 mg/kg
value_type: Cmax

For COc1ccc2ncc(F)c(C[C@H](O)[C@H]3OC[C@H](NCc4cnc5c(n4)NC(=O)CO5)CO3)c2n1 [OSUAB-0284] the compound record lists Cmax as 17600 ng/mL

Where do these numbers come from? They come from paper PMC12797228.
